- assay_system: T1, human GPRC5D (human, UniProt Q9NZD1 1-345)
- T1 construct: Full length, on stably transfected cells (HEK293-hGPRC5D, CHO-hGPRC5D); Also used here for the endogenous GPRC5D of the GPRC5D+ myeloma lines MM.1R, MM.1S and NCI-H929; also called hGPRC5D; G-protein-coupled receptor family C group 5 member D
- T1 sequence (Q9NZD1 whole entry): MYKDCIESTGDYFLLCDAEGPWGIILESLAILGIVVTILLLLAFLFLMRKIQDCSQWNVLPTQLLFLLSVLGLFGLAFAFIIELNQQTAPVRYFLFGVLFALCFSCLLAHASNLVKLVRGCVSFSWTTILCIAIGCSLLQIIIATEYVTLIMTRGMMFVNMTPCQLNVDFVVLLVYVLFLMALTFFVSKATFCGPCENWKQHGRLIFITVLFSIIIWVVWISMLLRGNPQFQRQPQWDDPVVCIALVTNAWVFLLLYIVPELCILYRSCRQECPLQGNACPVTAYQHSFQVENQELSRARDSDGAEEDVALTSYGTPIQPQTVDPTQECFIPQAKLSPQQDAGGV
- protocol_notes: flow cytometry on CHO-hGPRC5D cells
assay_metric: binding result

binder="anti-GPRC5D chimeric antibody 18E7 (antibody, V domains shown) VH: EVQLQQSGPELVKPGASVKMSCKASEYTFTNYVMYWVKQKPGQGLEWIGYINPYNDGTKYNEKFKGKATLTSDKSSSTAYMELSSLTSEDSAVYYCVRGGMLTTRSLFAYWGQGTLVTVSA VL: DIQMTQSPSSLSASLGERVSLTCRASQRISGYLSWLQQKPDGTIKRLIYAASTLDSGVPKRFSGSRSGSDYSLTISSLESEDFADYYCLQYASYPPTFGGGTKLEIK" recorded_result=binds
binder="anti-GPRC5D chimeric antibody 15A6 (antibody, V domains shown) VH: EVQLQQSGPELVKPGASVKMSCKASGYTFTNYVMYWVKQKPGQVLEWIGYINPYNDGTKYNEKFTGKATLTSDKSSSTAYMELSSLTSEDSAVYYCARGGMLTTRSLFVYWGQGTLVTVSA VL: DIQMTQSPSSLSASLGERVSLTCRASQEISGYFSWLQQKPDGTIKRLIYAASTLDSGVPKRFSGSRSGSDYSLTISSLESEDFADYYCLQYASYPPTFGGGTKLEIK" recorded_result=binds
binder="anti-GPRC5D chimeric antibody 6H1 (antibody, V domains shown) VH: QAYLQQSGAELVRSGASVKMSCKASGYTFTSYNMHWVKQTPGQGLEWIGYIYPGNGGTNYNQKFKGKATLTADTSSSTAYMQISSLTSEDSAVYFCARGYGYRYWYFDVWGTGTTVTVSS VL: QIVLTQSPAIMSASPGEKVTMTCSASSSVSYMHWYQQKSGTSPKRWIYDTSKLASGVPARFSGSGSGTSYSLTISSMEAEDAATYYCQQWNSKPPTFGSGTKLEIK" recorded_result=binds
